Provenance of the data: PubChem BioAssay (NCATS)

- Assay overview: Quantitative High-Throughput drug screen in 47 multiple myeloma cell lines against the NCATS MIPE library collection: ARD_JJKsccE7 cell viability assay (AID 1918929;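 for viability: 100% = DMSO-only wells and 0% = media-only wells without cells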)
- Measurement context: ARD myeloma cell line viability, CellTiter-Glo, 48 h; series mostly up to 45.8 µM
Results filed as inconclusive are left out. Active and inactive are the calls of the source. Calls come from the whole dose curve; as a rule, active = well fitted cell-killing curve with a large enough effect; inconclusive = small, poorly fitted or top-dose-only effect, or effect the other way; inactive = no such curve, though single readings can be large or run the other way.
Outcome codes: label 1 = active, label 0 = inactive

{"Molecule": "O=S(=O)(O)CCSSCCS(=O)(=O)O", "Discrete label": "label 0"}
{"Molecule": "CNC(=O)c1ccc(Nc2cc(Nc3ccccc3S(=O)(=O)C(C)C)c3cc[nH]c3n2)nc1", "Discrete label": "label 1"}
{"Molecule": "O=C(O)CCCCC(CCSCc1ccccc1)SCc1ccccc1 (stereo not given)", "Discrete label": "label 1"}
{"Molecule": "C[C@H]1[C@@H](OC(=O)CCC(=O)O)O[C@@H]2O[C@@]3(C)CC[C@@H]4[C@H](C)CC[C@@H]1[C@@]24OO3", "Discrete label": "label 1"}
{"Molecule": "OCC(O)C(O)C(O)CO (stereo not given)", "Discrete label": "label 0"}
{"Molecule": "CNC(=O)c1cccc(-c2ccc3c(N4CCOC[C@H]4C)nc(N4CCOC[C@H]4C)nc3n2)c1", "Discrete label": "label 1"}
{"Molecule": "CC[C@H](CC[C@@H](C)[C@H]1CC[C@H]2[C@@H]3CC=C4C[C@@H](O)CC[C@]4(C)[C@@H]3CC[C@]12C)C(C)C", "Discrete label": "label 0"}
{"Molecule": "N#CC(=C(O)c1ccc(Cl)cc1Cl)c1nc2cc(Cl)ccc2c(=O)[nH]1", "Discrete label": "label 0"}
{"Molecule": "Nc1nc(=O)n([C@H]2C[C@H](O)[C@@H](CO)O2)cc1F", "Discrete label": "label 0"}
{"Molecule": "N#Cc1ccc(COC[C@H]2O[C@@H](n3c(NCc4ccc(Cl)c(Cl)c4)nc4c(N)ncnc43)[C@@H](O)[C@@H]2O)cc1", "Discrete label": "label 1"}

---

- Assay overview: Quantitative High-Throughput drug screen in 47 multiple myeloma cell lines against the NCATS MIPE library collection: UTMC2_PLB cell viability assay (AID 1919868); note: nearly all actives have a fitted effect of over 55% in size
- Measurement context: CellTiter-Glo ATP luminescence, 48 h
Inconclusive results are not listed. The source made the active and inactive calls. The call rests on the fitted dose curve; in most records, active means well fitted cell-killing curve with a large enough effect; inconclusive means small, poorly fitted or top-dose-only effect, or effect the other way; inactive means no such curve, though single readings can be large or run the other way. Starred links: 1 amine or outer side, 2 acyl side, 3 side chain; linkers in the order of their positions; H or OH if unused. Positions of bridges follow the written chain, without caps; N, C: chain ends. Non-standard residues stand in square brackets, D forms with d. Residues, ends and D or L forms follow the SMILES beside them. Chains are numbered I, II in the order given. Actinocin(9to1) = Cc1c2oc3c(C)ccc(C(=O)[*:1])c3nc-2c(C(=O)[*:2])c(N)c1=O; NMeV = CN[CH](C(=O)O)C(C)C; Sar = CNCC(=O)O
Outcome codes: yes (1) = active, no (0) = inactive

{"Compound": "CC(C=CC(=O)NO)=C[C@@H](C)C(=O)c1ccc(N(C)C)cc1", "Discrete label": "yes (1)"}
{"Compound": "C=C1C(=CC=C2CCC[C@]3(C)[C@@H]([C@H](C)CCCC(C)(C)O)CC[C@@H]23)C[C@@H](O)C[C@@H]1O", "Discrete label": "yes (1)"}
{"Compound": "O=C(CN1C(=O)C2(CCCC2)NC[C@H]1c1cc(F)cc(F)c1)Nc1ccc2c(c1)C[C@@]1(C2)C(=O)Nc2ncccc21", "Discrete label": "no (0)"}
{"Compound": "C[C@H](NCc1ccc(OCc2cccc(F)c2)cc1)C(N)=O", "Discrete label": "yes (1)"}
{"Compound": "C=CCNc1c(O)cc2c(O)c1C[C@@H](C)C[C@H](OC)[C@@H](O)[C@@H](C)C=C(C)[C@H](OC(N)=O)[C@@H](OC)C=CC=C(C)C(=O)N2", "Discrete label": "yes (1)"}
{"Compound": "COc1cc(C[C@@H](CO)[C@H](CO)Cc2ccc(O)c(OC)c2)ccc1O", "Discrete label": "yes (1)"}
{"Compound": "COc1ccc(CCC(=O)c2c(O)cc(O[C@@H]3O[C@H](CO)[C@@H](O)[C@H](O)[C@@H]3O[C@@H]3O[C@@H](C)[C@H](O)[C@@H](O)[C@@H]3O)cc2O)cc1O", "Discrete label": "yes (1)"}
{"Compound": "COc1cc(OC)c(C=CS(=O)(=O)Cc2ccc(OC)c(NCC(=O)O)c2)c(OC)c1", "Discrete label": "yes (1)"}
{"Compound": "Nc1ccc(C(=O)Nc2cccc(-c3nc(N4CCOCC4)c4oc5ncccc5c4n3)c2)cn1", "Discrete label": "yes (1)"}
{"Compound": "O=C(O)c1ccc(Nc2ncc3c(n2)-c2ccc(Cl)cc2C(c2c(F)cccc2F)=NC3)cc1", "Discrete label": "yes (1)"}
{"Compound": "CCn1c(=O)c2c(nc(C=Cc3ccc(OC)c(OC)c3)n2C)n(CC)c1=O", "Discrete label": "no (0)"}
{"Compound": "Nc1ncn([C@@H]2O[C@H](CO)[C@@H](O)[C@@H]2O)c(=O)n1", "Discrete label": "yes (1)"}
{"Compound": "C[C@H](NCc1ccc2c(c1)nc(NC(=O)c1ccc(-c3cn[nH]c3)s1)n2CCc1ccccc1)C(C)(C)C", "Discrete label": "yes (1)"}
{"Compound": "N#CC(=C(O)c1ccc(Cl)cc1Cl)c1nc2cc(Cl)ccc2c(=O)[nH]1", "Discrete label": "no (0)"}
{"Compound": "OCCN1C[C@H](O)[C@@H](O)[C@H](O)[C@@H]1CO", "Discrete label": "no (0)"}
{"Compound": "CCNC(=O)Nc1ccc(-c2nc3c(c(N4CCOC[C@H]4C)n2)CCN(C2COC2)C3)cc1", "Discrete label": "yes (1)"}
{"Compound": "CN[C@@H]1C[C@H]2O[C@@](C)([C@H]1OC)n1c3ccccc3c3c4c(c5c6ccccc6n2c5c31)C(=O)N[C@H]4O", "Discrete label": "yes (1)"}
{"Compound": "Cc1noc(-c2ccc(CSCCC(=O)O)cc2)c1NC(=O)OC(C)c1ccccc1Cl (stereo not given)", "Discrete label": "no (0)"}
{"Compound": "Cc1cc(-c2nnc3n2CCCCC3)c(C)n1-c1ccccc1", "Discrete label": "no (0)"}
{"Compound": "CCOC(=O)C1=C(C)NC(=S)NC1c1cccc(O)c1 (stereo not given)", "Discrete label": "yes (1)"}
{"Compound": "COc1cc(OC)cc(-c2ccc3ncc4ccc(=O)n(-c5ccc(N6CCNCC6)c(C(F)(F)F)c5)c4c3c2)c1", "Discrete label": "yes (1)"}
{"Compound": "CC(C)n1cnc2c(NCCc3ccc(O)cc3)nc(-c3csc4ccccc34)nc21", "Discrete label": "yes (1)"}
{"Compound": "Cc1c2oc3c(C)ccc(C(=O)NC4C(=O)NC(C(C)C)C(=O)N5CCCC5C(=O)N(C)CC(=O)N(C)C(C(C)C)C(=O)OC4C)c3nc-2c(C(=O)NC2C(=O)NC(C(C)C)C(=O)N3CCCC3C(=O)N(C)CC(=O)N(C)C(C(C)C)C(=O)OC2C)c(N)c1=O (stereo not given) (I: TVP[Sar][NMeV] / II: TVP[Sar][NMeV]; ester I:1-I:C, II:1-II:C; linker I:N-II:N via Actinocin(9to1); configuration not given here)", "Discrete label": "no (0)"}
{"Compound": "CCCCCCCCCCCCc1ccc(S(=O)(=O)Nc2nncs2)cc1", "Discrete label": "no (0)"}
{"Compound": "COc1cc(CCc2cc(NC(=O)c3ccc(N4C[C@@H](C)N[C@@H](C)C4)cc3)n[nH]2)cc(OC)c1", "Discrete label": "yes (1)"}
